target: Lysine-specific demethylase 5A (Homo sapiens, UniProt P29375)
Sequence (P29375 whole entry): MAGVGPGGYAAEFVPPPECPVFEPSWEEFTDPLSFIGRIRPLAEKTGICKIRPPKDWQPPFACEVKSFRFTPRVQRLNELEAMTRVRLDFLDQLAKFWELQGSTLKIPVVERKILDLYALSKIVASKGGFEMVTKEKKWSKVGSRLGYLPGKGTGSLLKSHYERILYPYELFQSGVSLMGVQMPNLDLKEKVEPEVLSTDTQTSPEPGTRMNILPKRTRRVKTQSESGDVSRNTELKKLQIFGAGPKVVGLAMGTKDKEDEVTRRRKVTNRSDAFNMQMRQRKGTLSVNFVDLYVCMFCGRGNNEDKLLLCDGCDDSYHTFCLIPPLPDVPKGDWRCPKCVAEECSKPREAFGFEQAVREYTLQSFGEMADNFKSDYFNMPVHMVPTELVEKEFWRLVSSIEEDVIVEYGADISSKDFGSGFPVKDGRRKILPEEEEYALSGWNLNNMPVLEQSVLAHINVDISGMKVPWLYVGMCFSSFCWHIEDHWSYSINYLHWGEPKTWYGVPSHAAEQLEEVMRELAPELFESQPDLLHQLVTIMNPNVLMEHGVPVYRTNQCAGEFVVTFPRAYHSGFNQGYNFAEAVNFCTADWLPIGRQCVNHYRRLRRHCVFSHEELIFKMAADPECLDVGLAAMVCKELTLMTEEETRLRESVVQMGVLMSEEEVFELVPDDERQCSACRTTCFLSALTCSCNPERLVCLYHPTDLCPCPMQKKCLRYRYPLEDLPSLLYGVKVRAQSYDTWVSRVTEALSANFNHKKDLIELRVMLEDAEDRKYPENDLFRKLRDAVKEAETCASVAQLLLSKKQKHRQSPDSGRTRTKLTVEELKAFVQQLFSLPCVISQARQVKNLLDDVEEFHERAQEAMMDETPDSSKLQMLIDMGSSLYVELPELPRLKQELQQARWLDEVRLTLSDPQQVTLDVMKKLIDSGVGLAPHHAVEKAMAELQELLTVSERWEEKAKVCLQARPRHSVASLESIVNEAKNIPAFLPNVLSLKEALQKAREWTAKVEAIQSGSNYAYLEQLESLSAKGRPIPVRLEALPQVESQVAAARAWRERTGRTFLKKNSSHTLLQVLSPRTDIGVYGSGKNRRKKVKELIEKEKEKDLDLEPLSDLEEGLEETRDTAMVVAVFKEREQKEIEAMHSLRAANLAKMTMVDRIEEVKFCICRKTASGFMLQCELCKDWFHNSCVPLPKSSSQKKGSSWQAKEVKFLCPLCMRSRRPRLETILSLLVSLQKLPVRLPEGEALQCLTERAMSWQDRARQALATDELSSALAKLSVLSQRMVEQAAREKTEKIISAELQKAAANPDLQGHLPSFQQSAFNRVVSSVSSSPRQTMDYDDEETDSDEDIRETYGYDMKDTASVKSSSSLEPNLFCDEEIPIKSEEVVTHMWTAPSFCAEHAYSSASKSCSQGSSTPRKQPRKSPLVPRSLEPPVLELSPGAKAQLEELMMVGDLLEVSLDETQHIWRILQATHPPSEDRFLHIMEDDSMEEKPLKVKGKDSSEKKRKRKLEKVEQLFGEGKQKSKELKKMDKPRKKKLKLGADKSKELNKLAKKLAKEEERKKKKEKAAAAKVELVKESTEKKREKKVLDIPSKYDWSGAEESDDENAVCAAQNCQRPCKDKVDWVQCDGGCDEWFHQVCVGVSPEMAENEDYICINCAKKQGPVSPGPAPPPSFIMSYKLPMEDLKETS
endpoint-label: pIC50
A value of pIC50 is the negative decimal logarithm of a concentration given in moles per litre.

Looking for the measured pIC50 of `COC(=O)c1ccnc(-n2nccc2OCc2ccc(Cl)cc2)c1` , can you help? 7.00

Param item: `Cn1cnc(-c2cc(C(=O)O)ccn2)c1-c1ccc(OCC2CC2)cc1` 6.00

Param item: `O=C(O)c1ccncc1Nc1nn(C2CCCC2)c2ccc(F)cc12` 7.00

Param item: `Cn1nc(Nc2cnccc2C(=O)O)c2cccnc21` 7.00

Param item: `O=C(O)c1ccnc(-n2nccc2OCc2ccc(Cl)cc2)c1` 7.00

Param item: `COc1ccc(-c2c(-c3cc(C(=O)O)ccn3)ncn2C)cc1` 6.00
